So I've got a bunch of binders here, and I need their IC50 (nm), viral infectivity (HIV luciferase assay) values.
- subjectOfTest: HIV-1 HXB2 gp41 (from the HXB2 gp160 gene), on single-round luciferase virus (HIV-1 (HXB2), UniProt P04578)
- assayInfo: cell-based or functional assay

// lookup IC50 (nm), viral infectivity (HIV luciferase assay) for Ac-KIKKIENEIARIKKLLQLTVWGIKQLQARIL-NH2 (designed binder) [II15N17]
~3000 nM

// lookup IC50 (nm), viral infectivity (HIV luciferase assay) for IQN23 version 2 (designed binder) Ac-RMKQIEDKIEEIESKQKKIENEIARIKKLIEAQQHLLQLTVWGIKQLQARIL-NH2
~30 nM

// lookup IC50 (nm), viral infectivity (HIV luciferase assay) for Ac-LLQLTVWGIKQLQARIL-NH2 [N17]
~10000 nM

// lookup IC50 (nm), viral infectivity (HIV luciferase assay) for Ac-KQKKIENEIARIKKLLQLTVWGIKQLQARIL-NH2 (designed binder) [IQ15N17]
~10000 nM

// lookup IC50 (nm), viral infectivity (HIV luciferase assay) for Ac-RMKQIEDKIEEIESKQKKIENEIARIKKLLQLTVWGIKQLQARIL-NH2 (designed binder) [IQN17]
~180 nM

// lookup IC50 (nm), viral infectivity (HIV luciferase assay) for Ac-KIEEIESKIKKIENEIARIKKLLQLTVWGIKQLQARIL-NH2 (designed binder) [II22N17]
~170 nM

// lookup IC50 (nm), viral infectivity (HIV luciferase assay) for Ac-KIEEIESKQKKIENEIARIKKLLQLTVWGIKQLQARIL-NH2 (designed binder) [IQ22N17]
~1000 nM

// lookup IC50 (nm), viral infectivity (HIV luciferase assay) for Ac-IKKEIEAIKKEQEAIKKKIEAIEKLLQLTVWGIKQLQARIL-NH2 (designed binder) [IZN17]
5.6 nM
